Some compounds, each annotated with its measured melting point.

Example entries and their recorded answers appear below.
compound=CC(C)COc1c(-c2ccc(S(C)(=O)=O)cc2)cnn(-c2ccc(F)cc2)c1=O result="121 to 128 °C"
compound=NS(=O)(=O)c1ccc(-c2cnn(CC(F)(F)F)c(=O)c2Oc2ccc(F)cc2)cc1 result="150 to 152 °C"
compound=CS(=O)(=O)c1ccc(-c2cnn(Cc3ccccn3)c(=O)c2-c2ccc(F)cc2)cc1 result="182 to 184 °C"
compound="CC(c1cc(F)cc(F)c1)n1ncc(-c2ccc(S(N)(=O)=O)cc2)c(-c2ccc(F)cc2)c1=O (stereo not shown)" result="139 to 141 °C"
compound=CS(=O)(=O)c1ccc(-c2cnn(CC(F)(F)F)c(=O)c2SC2CCCCC2)cc1 result="165 to 167 °C"

Problem: Quick check: melting point of `CS(=O)(=O)c1ccc(-c2cnn(-c3cccc(Cl)c3)c(=O)c2OCc2ccccc2)cc1` ?
Result: 110 to 113 °C

Problem: So what's the measured melting point for this one? `CC(C)=CCCOc1c(-c2ccc(S(C)(=O)=O)cc2)cnn(-c2cccc(Cl)c2)c1=O`
Result: 110 to 111 °C

Problem: Quick check: melting point of `NS(=O)(=O)c1ccc(-c2cnn(CC(F)=C(F)F)c(=O)c2-c2ccc(F)cc2)cc1` ?
Result: 173 to 175 °C

Problem: Endpoint output: melting point of `CC(C)COc1c(-c2ccc(S(C)(=O)=O)cc2)cnn(-c2ccc(Cl)c(Cl)c2)c1=O` . Value?
Result: 127 to 129 °C

Problem: Recorded melting point of `CS(=O)(=O)c1ccc(-c2cnn(CC(F)(F)F)c(=O)c2-c2ccc(F)cc2)cc1` , please.
Result: 177 to 179 °C

Problem: melting point lookup needed for `CS(=O)(=O)c1ccc(-c2cnn(-c3ccc(F)cc3)c(=O)c2-c2cccc(F)c2)cc1` , thanks.
Result: 199 to 201 °C

Problem: What value of melting point has been recorded for this entry: `C=Cc1cccc(-n2ncc(-c3ccc(S(C)(=O)=O)cc3)c(-c3ccc(F)cc3)c2=O)c1`
Result: 182 to 183 °C

Problem: Which melting point is reported for this compound? `CS(=O)(=O)c1ccc(-c2cnn(-c3ccc(F)c(F)c3)c(=O)c2Oc2ccc(F)cc2)cc1`
Result: 178 to 180 °C

Problem: # lookup: melting point of `NS(=O)(=O)c1ccc(-c2cnn(Cc3ccc(F)c(F)c3F)c(=O)c2-c2ccc(F)cc2)cc1`
Result: 218 to 220 °C

Problem: Which measured melting point value corresponds to `NS(=O)(=O)c1ccc(-c2cnn(Cc3ccc(F)cc3)c(=O)c2-c2ccc(F)cc2)cc1` ?
Result: 237 to 239 °C
